System: BT-549 breast
assay procedure: NCI tumour cell line growth inhibition, 48 h
measure name: TGI (µM)

1) CCOC(=O)c1ccc2c(c1)c1c(C)c3ccncc3c(C)c1n2C : 3.7
2) COC(=O)[C@@]12OC[C@]34[C@H]([C@@H](O)[C@@H]1O)[C@@]1(C)CC(=O)C(OC(C)=O)=C(C)[C@@H]1C[C@H]3OC(=O)[C@H](OC(=O)C=C(C)C)[C@@H]24 : 5.27
3) CN(CCNC(=O)c1[nH]nc2c1Cc1ccccc1-2)CCNC(=O)c1[nH]nc2c1Cc1ccccc1-2 : 31
4) Nc1nc2c(c3cnccc13)C(c1cccc(Br)c1)Cc1cnccc1-2 (centres undefined) : 5.48
